test_system: human F508del-CFTR (Homo sapiens, UniProt P13569, DEL508-508)
Sequence (P13569 with tags, fused parts or gaps DEL508-508): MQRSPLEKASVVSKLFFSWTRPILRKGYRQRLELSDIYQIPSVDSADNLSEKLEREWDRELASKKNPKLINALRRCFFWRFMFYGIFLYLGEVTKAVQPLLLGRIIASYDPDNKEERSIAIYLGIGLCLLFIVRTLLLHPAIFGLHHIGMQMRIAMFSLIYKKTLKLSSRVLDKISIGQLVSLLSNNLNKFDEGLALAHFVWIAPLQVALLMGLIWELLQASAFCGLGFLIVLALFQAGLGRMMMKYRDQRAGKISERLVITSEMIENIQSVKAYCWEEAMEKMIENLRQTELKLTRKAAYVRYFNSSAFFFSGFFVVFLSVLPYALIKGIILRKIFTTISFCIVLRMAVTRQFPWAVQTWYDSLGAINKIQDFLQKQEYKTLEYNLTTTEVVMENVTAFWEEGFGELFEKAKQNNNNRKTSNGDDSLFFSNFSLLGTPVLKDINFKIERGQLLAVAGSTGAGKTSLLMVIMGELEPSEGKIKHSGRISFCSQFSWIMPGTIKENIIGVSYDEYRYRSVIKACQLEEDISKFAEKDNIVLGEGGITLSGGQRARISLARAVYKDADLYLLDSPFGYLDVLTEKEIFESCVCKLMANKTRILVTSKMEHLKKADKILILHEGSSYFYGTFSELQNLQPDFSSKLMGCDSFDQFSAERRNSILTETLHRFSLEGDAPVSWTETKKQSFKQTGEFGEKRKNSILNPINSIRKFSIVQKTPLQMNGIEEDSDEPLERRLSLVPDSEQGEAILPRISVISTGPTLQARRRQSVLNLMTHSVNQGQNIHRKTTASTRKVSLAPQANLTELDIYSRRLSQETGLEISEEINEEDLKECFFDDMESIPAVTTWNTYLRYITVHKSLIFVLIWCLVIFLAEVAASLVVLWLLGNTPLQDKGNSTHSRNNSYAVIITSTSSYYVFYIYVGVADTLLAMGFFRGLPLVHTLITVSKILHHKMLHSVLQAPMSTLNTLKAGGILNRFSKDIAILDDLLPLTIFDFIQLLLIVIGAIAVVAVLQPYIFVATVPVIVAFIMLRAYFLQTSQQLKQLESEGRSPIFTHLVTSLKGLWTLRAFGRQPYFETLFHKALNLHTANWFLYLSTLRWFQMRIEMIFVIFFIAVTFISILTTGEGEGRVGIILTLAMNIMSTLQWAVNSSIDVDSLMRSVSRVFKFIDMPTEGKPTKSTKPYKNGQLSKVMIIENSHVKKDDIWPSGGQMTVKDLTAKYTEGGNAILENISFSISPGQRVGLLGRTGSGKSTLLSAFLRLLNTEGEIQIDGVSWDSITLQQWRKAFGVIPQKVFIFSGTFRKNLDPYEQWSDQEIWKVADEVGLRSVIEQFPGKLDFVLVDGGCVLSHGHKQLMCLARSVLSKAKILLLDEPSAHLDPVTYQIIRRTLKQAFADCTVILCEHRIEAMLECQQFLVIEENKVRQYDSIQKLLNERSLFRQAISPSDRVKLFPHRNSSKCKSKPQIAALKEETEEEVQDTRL
assay_details: F508del-CFTR cell surface expression (corrector activity), DiscoveRx ß-galactosidase complementation chemiluminescence assay in recombinant U2OS cell line
condition_parameters: EC50, F508del-CFTR cell surface expression, U2OS cell line, 16h compound incubation; geomean values
pEC50: −log10 of the molar value.
# pEC50 annotations
readout_type: pEC50

[
  {
    "compound": "COc1ccc(CCNC(=O)[C@@H]2CC(=O)N(C)[C@@H](CC(C)C)C(=O)N(C)CC(=O)N[C@H](Cc3ccccc3)COc3cc4c(cc3C(=O)N2)OCO4)cc1",
    "readout_type": "pEC50",
    "result_number": 6.34
  },
  {
    "compound": "COc1cccc(CCNC(=O)[C@@H]2CC(=O)N(C)[C@@H](CC(C)C)C(=O)N(CCC3CCCCC3)CC(=O)N[C@H](Cc3ccccc3)COc3ccc4ccccc4c3C(=O)N2)c1 (racemic) [Example 303]",
    "readout_type": "pEC50",
    "result_number": 6.74
  },
  {
    "compound": "COc1cccc(CCNC(=O)[C@@H]2CC(=O)N(C)[C@@H](CC(C)C)C(=O)N(C)CC(=O)N[C@H](Cc3ccccc3)COc3ccc(OC)cc3C(=O)N2)c1",
    "readout_type": "pEC50",
    "result_number": 6.23
  },
  {
    "compound": "COc1cccc2c1C(=O)N[C@H](C(=O)NCCc1ccc3c(c1)CCCO3)CC(=O)N(C)[C@@H](CC(C)C)C(=O)N(CCC1CCCCC1)CC(=O)N[C@H](Cc1ccccc1)CO2 (mixture of isomers)",
    "readout_type": "pEC50",
    "result_number": 6.74
  },
  {
    "compound": "COc1cccc(CCNC(=O)[C@@H]2CC(=O)N(C)[C@@H](CC3CCCC3)C(=O)N(CC[C@H]3CCCCO3)CC(=O)N[C@H](Cc3ccccc3)COc3ccc4ccccc4c3C(=O)N2)c1 (racemic)",
    "readout_type": "pEC50",
    "result_number": 6.66
  },
  {
    "compound": "COc1ccc(CCNC(=O)[C@@H]2CC(=O)N(C)[C@@H](CC(C)C)C(=O)N(C)CC(=O)N[C@H](Cc3ccccc3)COc3cc(OC)c(OC)cc3C(=O)N2)cc1",
    "readout_type": "pEC50",
    "result_number": 6.28
  },
  {
    "compound": "CC(C)C[C@H]1C(=O)N(C)C2(CC2)C(=O)N[C@H](Cc2ccccc2)COc2cnc3ccc(F)cc3c2C(=O)N[C@H](C(=O)NCCc2cccc(S(C)(=O)=O)c2)CC(=O)N1C",
    "readout_type": "pEC50",
    "result_number": 6.09
  },
  {
    "compound": "C#Cc1cccc(CCNC(=O)[C@@H]2CC(=O)N(C)[C@@H](CC(C)C)C(=O)N3CCCC[C@@H]3C(=O)N[C@H](Cc3ccccc3)COc3ccnc(OC)c3C(=O)N2)c1",
    "readout_type": "pEC50",
    "result_number": 6.34
  }
]

----------
test_system: human F508del-CFTR (Homo sapiens, UniProt P13569, DEL508-508)
assay_details: F508del-CFTR cell surface expression (corrector activity), DiscoveRx ß-galactosidase complementation chemiluminescence assay in recombinant U2OS cell line;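 note: U2OS cells co-expressing ProLink-tagged F508del-CFTR and a membrane-anchored enzyme acceptor, where more surface CFTR restores β-galactosidase activity measured by chemiluminescence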
condition_parameters: U2OS, in relation to Emax of corrector lumacaftor (=100%); arithmetic mean values
Binary label based on Emax with cut-off 300%: below gives Criterion met, not below gives Criterion not met.

[
  {
    "molecule": "Cc1cc(CCNC(=O)[C@@H]2CC(=O)N(C)[C@@H](CC(C)C)C(=O)N3CCN(CC(C)C)C[C@H]3C(=O)N[C@H](Cc3ccccc3)COc3ccc4nc(C)oc4c3C(=O)N2)on1",
    "assigned_label": "Criterion met"
  },
  {
    "molecule": "COc1cc(CCNC(=O)[C@@H]2CC(=O)N(C)[C@@H](CC(C)C)C(=O)N(CCC3CCCCC3)CC(=O)N[C@H](Cc3ccccc3)COc3ccnc(OC)c3C(=O)N2)on1",
    "assigned_label": "Criterion met"
  },
  {
    "molecule": "Cc1cc(CCNC(=O)[C@@H]2CC(=O)N(C)[C@@H](CC(C)C)C(=O)N3CCCC[C@@H]3C(=O)N[C@H](Cc3ccccc3)COc3cnc4ccc(F)cc4c3C(=O)N2)on1",
    "assigned_label": "Criterion met"
  },
  {
    "molecule": "COc1cccc(CCNC(=O)[C@@H]2CC(=O)N(C)[C@@H](CC(C)C)C(=O)N3CCN(S(=O)(=O)CCN4CCOCC4)C[C@@H]3C(=O)N[C@H](Cc3ccccc3)COc3ccc4ccccc4c3C(=O)N2)c1",
    "assigned_label": "Criterion met"
  },
  {
    "molecule": "COc1cccc(CCNC(=O)[C@@H]2CC(=O)N(C)[C@@H](CC(C)C)C(=O)N3CCN(c4ccccc4)C[C@H]3C(=O)N[C@H](Cc3ccccc3)COc3ccnc(OC)c3C(=O)N2)c1",
    "assigned_label": "Criterion met"
  },
  {
    "molecule": "COc1cccc(CCNC(=O)[C@@H]2CC(=O)N(C)[C@@H](CC(C)C)C(=O)N3CCc4ccccc4[C@H]3C(=O)N[C@H](Cc3ccccc3)COc3ccnc(OC)c3C(=O)N2)c1 (mixture of isomers)",
    "assigned_label": "Criterion met"
  },
  {
    "molecule": "CC(C)C[C@H]1C(=O)N2CCCC[C@H]2C(=O)N[C@H](Cc2ccccc2)COc2ccc3ncc(F)cc3c2C(=O)N[C@H](C(=O)NCCn2ncc(C3CC3)n2)CC(=O)N1C",
    "assigned_label": "Criterion met"
  },
  {
    "molecule": "CC(C)C[C@H]1C(=O)N2CCCC[C@@H]2C(=O)N[C@H](Cc2ccccc2)COc2cnc3ccc(F)cc3c2C(=O)N[C@H](C(=O)NCCc2cnn(C3CC3)n2)CC(=O)N1C",
    "assigned_label": "Criterion not met"
  },
  {
    "molecule": "CC(C)C[C@H]1C(=O)N2CCCC[C@@H]2C(=O)N[C@H](Cc2ccccc2)COc2cnc3ccccc3c2C(=O)N[C@H](C(=O)NCCc2cc(C3CC3)no2)CC(=O)N1C",
    "assigned_label": "Criterion not met"
  },
  {
    "molecule": "COc1nccc2c1C(=O)N[C@H](C(=O)NCCc1noc(C3CC3)n1)CC(=O)N(C)[C@@H](CC(C)C)C(=O)N(C)[C@H](CC1CCC(F)(F)CC1)C(=O)N[C@H](Cc1ccccc1)CO2",
    "assigned_label": "Criterion not met"
  },
  {
    "molecule": "CC(C)C[C@H]1C(=O)N(C)C2(CC2)C(=O)N[C@H](Cc2ccccc2)COc2ccc3ncccc3c2C(=O)N[C@H](C(=O)NCCc2cc(C3CC3)no2)CC(=O)N1C",
    "assigned_label": "Criterion not met"
  },
  {
    "molecule": "COc1cc(CCNC(=O)[C@@H]2CC(=O)N(C)[C@@H](CC(C)C)C(=O)N(C)C3(CC3)C(=O)N[C@H](Cc3ccccc3)COc3cnc4ccccc4c3C(=O)N2)on1",
    "assigned_label": "Criterion not met"
  },
  {
    "molecule": "Cc1cc(CCNC(=O)[C@@H]2CC(=O)N(C)[C@@H](CC(C)C)C(=O)N3CCCC[C@H]3C(=O)N[C@H](Cc3ccccc3)COc3ccc4ccccc4c3C(=O)N2)on1",
    "assigned_label": "Criterion met"
  }
]

Source: patent US20240208992A1
